- Test system: TGF-b induced Endothelin-1 production
- assay.method.text: ET-1 assay: inhibitory effect on TGF-b induced endothelin-1 production
- Format: cell-based
- measurement.conditions: Homo sapiens, Fibroblast; fibroblasts, stimulant (TGFb, serum, LPA etc), ET-1 in media by ELISA, 4-parameter fit
recorded.endpoint: EC50

Req: Consider the compound Cn1cc(-c2cn(-c3ccc(OC(F)(F)F)cc3)c(=O)cc2Oc2ccc(F)cc2)cn1 [Compound 410] and give its measured EC50.
Resp: < 50 µM

Req: Also check COc1ccc(-c2ccc(=O)n(-c3ccc(Cl)cc3)c2)cc1 [Compound 303]
Resp: 50 to 200 µM

Req: Also check Cc1cc(=O)n(-c2cccc(C(F)(F)F)c2)cc1-c1ccc(F)cc1 [Compound 177]
Resp: 50 to 200 µM

Req: Also check CCn1ccc2c(-c3cn[nH]c3)cn(-c3ccc(OC(F)(F)F)cc3)c(=O)c21 [Compound 593]
Resp: < 50 µM

Req: Also check Cn1cc(-c2cn(-c3ccc(OC(F)(F)F)cc3)c(=O)cc2O)cn1 [Compound 121]
Resp: > 200 µM

Req: Also check COC(=O)Nc1cc(=O)n(-c2ccc(OC(F)(F)F)cc2)cc1-c1ccc(F)cc1 [Compound 111]
Resp: > 200 µM

Req: Also check CCOc1ccc(Oc2cc(=O)n(-c3ccc(OC(F)(F)F)cc3)cc2-c2cnn(C)c2)cc1C [Compound 154]
Resp: > 200 µM

Req: Also check Cc1cc(=O)n(-c2ccc(OC(F)(F)F)cc2)cc1-c1cscn1 [Compound 262]
Resp: 50 to 200 µM

Req: Also check CCn1cnc2c(-c3cn[nH]c3)cn(-c3ccc(OC(F)(F)F)cc3)c(=O)c21 [Compound 669]
Resp: < 50 µM

Req: Also check Cc1n[nH]c(C)c1-c1ccc(=O)n(-c2cccc(C(F)(F)F)c2)c1 [Compound 384]
Resp: 50 to 200 µM

Req: Also check CCOc1ccc(-n2cc(-c3cnn(C)c3)c(OC)cc2=O)c(C)c1 [Compound 162]
Resp: < 50 µM

Req: Also check Cc1cc(=O)n(-c2ccc(OC(F)(F)F)cc2)cc1-c1ccc(F)cc1 [Compound 213]
Resp: > 200 µM

Req: Also check Cn1cc(-c2cnc(=O)n(-c3ccc(OC(F)(F)F)cc3)c2)cn1 [Compound 364]
Resp: > 200 µM

Req: Also check Cc1nc2c(=O)n(-c3ccc(OC(F)(F)F)cc3)cc(-c3cnn(C)c3)c2n1C [Compound 674]
Resp: 50 to 200 µM

Req: Also check Cn1cc(-c2cn(-c3ccc(OC(F)(F)F)cc3)c(=O)c3c2NCCC3)cn1 [Compound 44]
Resp: > 200 µM

Req: Also check CCn1nnc2c(=O)n(-c3ccc(OC(F)(F)F)cc3)cc(-c3ccc(F)cc3)c21 [Compound 682]
Resp: < 50 µM

Req: Also check Cc1cc(=O)n(-c2ccc(OC(F)(F)F)cc2)cc1-c1ccc2c(ccn2C)c1 [Compound 255]
Resp: > 200 µM

Req: Also check Cn1cc(-c2cn(-c3ccc(OC(F)(F)F)cc3)c(=O)c3ncn(Cc4ccccc4)c23)cn1 [Compound 55]
Resp: > 200 µM

Req: Also check COc1ccc(-c2ccc(=O)n(-c3ccccc3F)c2)cc1 [Compound 312]
Resp: > 200 µM

Req: Also check CC(C)c1cc(=O)n(-c2ccc(OC(F)(F)F)cc2)cc1-c1ccc(F)cc1 [Compound 200]
Resp: 50 to 200 µM

Req: Also check COc1cccc(-n2cc(C(C)=O)ccc2=O)c1 [Compound 14]
Resp: > 200 µM

Req: Also check Cc1nc2c(=O)n(-c3ccc(OC(F)(F)F)cc3)cc(-c3ccc(F)cc3)c2o1 [Compound 568]
Resp: > 200 µM

Req: Also check CCOc1ccc(-n2cc(-c3cnn(C)c3)c(NCc3ccc(OCCOC)cc3)cc2=O)c(C)c1 [Compound 707]
Resp: < 50 µM

Req: Also check O=c1c2nc[nH]c2c(-c2ccc(F)cc2)cn1-c1ccc(OC(F)(F)F)cc1 [Compound 56]
Resp: > 200 µM

Req: Also check CC(C)Oc1ccc(-n2cc(-c3ccc(F)cc3)ccc2=O)cc1 [Compound 288]
Resp: 50 to 200 µM

Req: Also check Cc1cc(=O)n(-c2ccccc2F)cc1-c1ccc(F)cc1 [Compound 178]
Resp: 50 to 200 µM

Req: Also check Cc1ccc(-n2cc(-c3ccc(F)cc3)c(C)cc2=O)cc1 [Compound 216]
Resp: 50 to 200 µM

Req: Also check O=c1c2[nH]ccc2c(-c2cn[nH]c2)cn1-c1ccc(Cl)cc1 [Compound 606]
Resp: < 50 µM

Req: Also check Cn1cc(-c2cn(-c3ccc(OC(F)(F)F)cc3)c(=O)c3[nH]nnc23)cn1 [Compound 631]
Resp: < 50 µM

Req: Also check CN1C(=O)COc2c(-c3ccc(F)cc3)cn(-c3ccc(OC(F)(F)F)cc3)c(=O)c21 [Compound 53]
Resp: > 200 µM

Req: Also check Cn1cc(-c2cn(-c3ccc(OC(F)(F)F)cc3)c(=O)cc2NCc2ccc(C#N)cc2)cn1 [Compound 526]
Resp: > 200 µM

Req: Also check Cc1cc(=O)n(-c2cccc3c2OCO3)cc1-c1cnn(C)c1 [Compound 232]
Resp: > 200 µM

Req: Also check Cc1cc(=O)n(-c2ccc(OC(F)(F)F)cc2)cc1-c1cccc2c1OCC(=O)N2 [Compound 423]
Resp: > 200 µM

Req: Also check Cc1cc(=O)n(-c2ccc(OC(F)(F)F)cc2)cc1-c1cnc2nccn2c1 [Compound 248]
Resp: > 200 µM

====

I'd appreciate it if you could supply EC50 values for the items below.
- System: TGF-b induced Endothelin-1 production
- assay.method.text: ET-1 assay: inhibitory effect on TGF-b induced endothelin-1 production
- Type: cell-based
- measurement.conditions: Homo sapiens, Fibroblast; fibroblasts, stimulant (TGFb, serum, LPA etc), ET-1 in media by ELISA, 4-parameter fit

Req: Consider the molecule O=c1ccc(-c2ccccc2)cn1-c1cccc(F)c1 [Compound 296] and give its measured EC50.
Resp: > 200 µM

Req: Also check Cc1cc(=O)n(-c2ccc3scnc3c2)cc1-c1cnn(C)c1 [Compound 225]
Resp: > 200 µM

Req: Also check Cc1cc(=O)n(-c2cccc(NC(N)=O)c2)cc1-c1ccc(F)cc1 [Compound 188]
Resp: < 50 µM

Req: Also check O=c1ccc(Br)cn1-c1ccc(Cl)cc1 [Compound 269]
Resp: > 200 µM

Req: Also check Cc1cc(=O)n(-c2ccc(OC(F)(F)F)cc2)cc1-c1ccc2nonc2c1 [Compound 259]
Resp: 50 to 200 µM

Req: Also check CCOc1ccc(CNc2cc(=O)n(-c3ccc(OC(F)(F)F)cc3)cc2-c2cnn(C)c2)cc1 [Compound 530]
Resp: < 50 µM

Req: Also check Cn1cc(-c2cn(-c3ccc(OC(F)(F)F)cc3)c(=O)cc2Oc2cc(Cl)cc(C#N)c2)cn1 [Compound 156]
Resp: > 200 µM

Req: Also check O=C1CCCN1CCOc1cc(=O)n(-c2ccc(OC(F)(F)F)cc2)cc1-c1ccc(F)cc1 [Compound 97]
Resp: > 200 µM

Req: Also check CCn1cnc2c(=O)n(-c3ccc(OC(F)(F)F)cc3)cc(-c3cnn(C)c3)c21 [Compound 636]
Resp: > 200 µM

Req: Also check O=c1ccc(-c2cccc(Cl)c2)cn1-c1ccccc1Cl [Compound 322]
Resp: < 50 µM

Req: Also check Cc1cc(=O)n(-c2ccc(OC(F)(F)F)cc2)cc1-c1cn[nH]c1 [Compound 218]
Resp: < 50 µM

Req: Also check Cn1cc(-c2cn(-c3ccc(OC(F)(F)F)cc3)c(=O)c3c2ccn3C)cn1 [Compound 394]
Resp: < 50 µM

Req: Also check COc1cccc(-n2cc(-c3cccc(Cl)c3)ccc2=O)c1 [Compound 319]
Resp: < 50 µM

Req: Also check Cc1cn(C)c2c(=O)n(-c3ccc(OC(F)(F)F)cc3)cc(-c3ccc(F)cc3)c12 [Compound 49]
Resp: < 50 µM

Req: Also check CCOc1ccc(-n2cc(-c3ccnnc3)c3nn(CC)nc3c2=O)c(C)c1 [Compound 685]
Resp: < 50 µM

Req: Also check O=c1c2c(c(-c3ccc(F)cc3)cn1-c1ccc(OC(F)(F)F)cc1)NCCC2 [Compound 45]
Resp: > 200 µM

Req: Also check CCOc1ccc(-n2cc(-c3cnn(C)c3)c(NCc3ccc(C#N)cc3)cc2=O)c(C)c1 [Compound 704]
Resp: < 50 µM

Req: Also check Cn1cc(-c2c[nH]c(=O)c3[nH]ccc23)cn1 [Compound 612]
Resp: < 50 µM

====

- System: TGF-b induced Endothelin-1 production
- assay.method.text: ET-1 assay: inhibitory effect on TGF-b induced endothelin-1 production
- Type: cell-based
- measurement.conditions: Homo sapiens, Fibroblast; fibroblasts, stimulant (TGFb, serum, LPA etc), ET-1 in media by ELISA, 4-parameter fit
pEC50: −log10 of the molar value.
recorded.endpoint: pEC50

Req: Provide value of pEC50 for this record tested with TGF-b induced Endothelin-1 production: O=c1ncc(-c2ccnnc2)cn1-c1ccc(OC(F)(F)F)cc1
Resp: 3.70 to 4.30

Req: Also check CC(=O)c1ccc(=O)n(-c2cccc(F)c2)c1
Resp: < 3.70

Req: Also check O=c1c2nccnc2c(-c2ccc(F)cc2)cn1-c1ccc(OC(F)(F)F)cc1
Resp: > 4.30

Req: Also check Cc1cc(=O)n(-c2cccc3c2OCO3)cc1-c1ccc(F)cc1
Resp: 3.70 to 4.30

Req: Also check Cc1cc(=O)n(-c2ccc(OC(F)(F)F)cc2)cc1-c1cccc2c1NC(=O)CO2
Resp: < 3.70

Req: Also check Cn1cc(-c2cn(-c3ccc(OC(F)(F)F)cc3)c(=O)cc2OCCN2CCCC2)cn1
Resp: 3.70 to 4.30

Req: Also check O=c1cc(NCc2ncccn2)ccn1-c1ccc(OC(F)(F)F)cc1
Resp: < 3.70

Req: Also check Cc1cc(=O)n(-c2ccccc2NC(N)=O)cc1-c1ccc(F)cc1
Resp: > 4.30

Req: Also check CCOc1ccc(-n2cc(-c3cccc(F)c3)c(C)cc2=O)c(C)c1
Resp: 3.70 to 4.30
